experimental-system: UniProtKB P01375
Sequence (P01375 whole entry): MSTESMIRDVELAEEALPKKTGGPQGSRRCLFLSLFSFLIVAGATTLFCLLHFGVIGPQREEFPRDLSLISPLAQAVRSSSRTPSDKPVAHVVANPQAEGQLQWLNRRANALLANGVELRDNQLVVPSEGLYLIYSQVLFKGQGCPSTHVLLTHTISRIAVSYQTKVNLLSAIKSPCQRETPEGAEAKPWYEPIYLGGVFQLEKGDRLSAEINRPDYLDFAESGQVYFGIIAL
assay-text: TNF induced HEK-Blue assay
endpoint-name: IC50

Could you tell me which IC50 is on file for `CC(C)(O)c1ccc(-c2ccc3nc4c(n3n2)[C@@H](c2ccccc2OC(F)F)NC[C@H]4O)cc1` ?
< 1000 nM
